# Test system: COLO 205
# PROCEDURE TEXT: NCI tumour cell line growth inhibition, 48 h
Active and inactive are the calls of the source. Rule as the data show it: active = GI50 up to about 1.1 µM and inactive = higher.
Outcome field: choose from Y (active), N (inactive)

O=P(O)(O)CCP(=O)(O)O = N
O=C(O)c1cc(-c2ccc3cc(O)c(O)cc3c2)ccc1O = N
CSc1ncnc2c1CCN2 = N
Cc1ccc(/C=N/Nc2nncc3ccccc23)s1 = N
CCOC(=O)c1nnsc1N/N=C\c1ccc([N+](=O)[O-])cc1 = N

Query molecule follows.
Query: recorded result category for CN(C)CC1CCCC/C1=N/OC(=O)c1ccc(Cl)c(Cl)c1 (configuration not stated) in this test
N

* * *

# System: LOX IMVI
# PROCEDURE TEXT: NCI tumour cell line growth inhibition, 48 h
Activity calls are given as the source filed them. Rule as the data show it: active = GI50 up to about 1.1 µM and inactive = higher.
Outcome field: choose from active, inactive

Query: recorded result category for `CS(=O)(=O)c1cc(=O)c2ccccc2s1` in this test
inactive

And what about the molecule `CCCCCCCCCCCC/C=C\CC[C@@H](O)[C@H](O)CC[C@H](O)[C@@H]1CC[C@@H](CCCCCCCC2=C[C@H](C)OC2=O)O1` ?
inactive

And what about the molecule `c1nc2nc[nH]c(SSc3[nH]cnc4ncnc3-4)c-2n1` ?
active

* * *

# Tested on: OVCAR-8
# PROCEDURE TEXT: NCI tumour cell line growth inhibition, 48 h
The source made the active and inactive calls. Rule as the data show it: active = GI50 up to about 1.1 µM and inactive = higher.
Item-by-item account of GI50

CCN(CC)c1ccc2cc(C(=O)Nc3ccc4[nH]c(C(=O)N5C[C@@H](CCl)c6c5cc(OC(=O)Nc5ccccc5)c5[nH]cc(C)c65)cc4c3)oc2c1 = 234 µM (inactive)
CSC1CC2C(CC1(C)SC)C2(C)C (stereo unspecified) = 39.5 µM (inactive)
O=C(NCCCCCCNC(=O)n1cc(F)c(=O)[nH]c1=O)NCCCOCCOCCCNC(=O)C(O)C(O)C(O)C(O)CO (stereo unspecified) = > 2.5 µM (inactive)
O=S(=O)(SCc1ccccc1)C(c1ccccc1)c1ccccc1 = 19.8 µM (inactive)
COc1cc2c3c([nH]c2c(OC)c1OC)CCN(Cc1ccccc1)C3 = > 100 µM (inactive)

Given COC1CC2C=CC3C4OC2(/C(C)=C/C(C)C(C(C)O)OC1=O)C3C(O)C(C)C4OC(=O)c1ccc[nH]1 (stereo unspecified) , state its recorded GI50.
48.9 µM (inactive)

And what about the molecule `COc1ccc2nc3cc(Cl)ccc3c(Sc3ccccc3[N+](=O)[O-])c2c1` ?
> 100 µM (inactive)

And what about the molecule `N#Cc1ccc(/C=N/NC(=O)CSCC(=O)N/N=C/c2ccc(C#N)cc2)cc1` ?
53.1 µM (inactive)

And what about the molecule `O=C(O)CCCc1ccc(N(CCCl)CCCl)cc1` ?
83.2 µM (inactive)

* * *

# Test system: RXF 393
# PROCEDURE TEXT: NCI tumour cell line growth inhibition, 48 h
The source made the active and inactive calls. Rule as the data show it: active = GI50 up to about 1.1 µM and inactive = higher.
ENDPOINT LABEL: GI50

Given `O=C1C/C(=C\c2ccccc2)C(=O)c2ccccc2N1` , state its recorded GI50.
19.6 µM (inactive)

And what about the compound CN1CCCOC(c2ccc(Cl)cc2)O1 (configuration not stated) ?
> 100 µM (inactive)

And what about the compound `Cc1cccc(C)c1NC(=S)N/C=C(\C#N)C(N)=O` ?
> 100 µM (inactive)

And what about the compound `COc1cc(=O)oc(/C=C/CO)c1C` ?
> 100 µM (inactive)

And what about the compound `C[C@@H]1C[C@@H]2C(=O)N(c3ccccc3)C(=O)[C@@H]2c2[nH]c3ccc(Br)cc3c21` ?
43.4 µM (inactive)

And what about the compound CC1CC2(S(=O)(=O)c3ccccc3)ON1CC2S(=O)(=O)c1ccccc1 (configuration not stated) ?
> 100 µM (inactive)

And what about the compound `O=S(=O)(O)c1cc(/N=N/c2cccc3ccccc23)c(O)c2ncccc12` ?
62.8 µM (inactive)
